# PROTOCOL SUMMARY: soluble fraction after stress (log2 fold change); higher = more stays soluble; pooled small domains, quantitative proteomics
# ASSAY CONTEXT: stress: 50 degC
The reader will find reported soluble fraction (log2) values listed item by item below.
Lab note: jot the number down without any unit.

A selection of reference data follows.
* HMVELNDNEKIVYDILKETEKIHIDELTAKVQLTQSILSGALVQMEMKGMIVSLPGKMYKLL | -0.132
* HMVVLPGEVVALKIIQTGSSKDQGVGYLEDGTMVVVDGAKNSIGKTIEIQISRSHQTVAGRMLFGIAMS | -1.24
* HMGAPAISYSKFLEQVDRKNVASVTIYKDGRIDGVMTSGSRFATESPSDPGLVGDLLKAGVEIRAKPP | 0.126
* HMENYTYKYATSANVNIREEPNTDSTILGKTLLNTEFQVVEDVDGWSKITTEAGYAYIKSEYLSDTE | -0.188
* HMFTEEQMDWLRLIKDHIVASLSILPEDLELTPFDRKGGLLGFYDAFGDEYEKILQEMNEELVA | -0.588

Continue with the sequence presented below.
soluble fraction (log2) reading for HMELSPAELGERLKVARETANVTQDAGAKAAGIARTTLVAIEKGQRSARIDELQTLSRRYGVSVNSLLRR : -0.135

These entries and their values trace back to the domain aggregation screens of Martell et al. (2025).
